Origin of values: PubChem BioAssay (NCI)

- Tested on: DU-145 prostate
- experiment-description: NCI-60 one-dose screen, 48 h
- condition-label: 10 µM unless noted
This is part of a sample that, as a whole, favours compounds with a hit. Of some 83,000 tested, about 20% had one in any assay. Calls of active or inactive are those of the source. The calls were made as follows: active = growth percent below 10; inactive = the rest.
Give your call using only these classes: YES = active, NO = inactive

Answered examples (5):
O=C(CC(C(=O)c1ccccc1)N1CCN(Cc2ccccc2)CC1)c1ccccc1 (stereo unspecified)
NO
COC(=O)[C@H](Cc1cn(C)cn1)NC(=O)[C@@H](NC(=O)Nc1cc(C(F)(F)F)cc(C(F)(F)F)c1)C(C)C
YES
COc1ccc(C2=NN(C(N)=S)C(c3ccc4c(c3)OCO4)C2)cc1 (stereo unspecified)
YES
CCCCCCCCCCOC(C)=O
NO
COc1ccc([N+](=O)[O-])c(S(=O)(=O)c2ccc(Cl)cc2)n1
NO

# lookup: test call for "CCN(CC)c1ccc(N=C2C=CC(=O)C=C2NC(C)=O)cc1"
NO
